# system: Peroxisome proliferator-activated receptor alpha (Homo sapiens, UniProt Q07869)
# test: Binding affinity to GST-tagged human PPARalpha by TR-FRET analysis
Entries and their measured pIC50 follow.
// scale note: pIC50 = -log10(conc_M); give the bare number

Worked cases, answers included:
- compound: "CC(C)=CCC/C(C)=C/Cc1c(O)cc(/C=C/c2cccc(C(F)(F)F)c2)cc1O"
  pIC50: 5.92
- compound: "CC(C)=CCC/C(C)=C/Cc1c(O)cc(/C=C/c2ccc(F)cc2)cc1O"
  pIC50: 5.61
- compound: "CC(C)=CCC/C(C)=C/Cc1c(O)cc(/C=C/c2ccoc2)cc1O"
  pIC50: 5.69
- compound: "CC(C)=CCC/C(C)=C/Cc1c(O)cc(/C=C/c2ccc(O)cc2)cc1O"
  pIC50: 5.92
- compound: "CC(C)=CCC/C(C)=C/Cc1c(O)cc(/C=C/c2ccc(C#N)cc2)cc1O"
  pIC50: 5.46
- compound: "CC(C)=CCC/C(C)=C/Cc1c(O)cc(/C=C/c2ccc(C=O)cc2)cc1O"
  pIC50: 5.55

Could you now look at the following compound, please?
Asked: Form entry - test system: Peroxisome proliferator-activated receptor alpha (Homo sapiens, UniProt Q07869); read-out: pIC50; compound: CC(C)=CCC/C(C)=C/Cc1c(O)cc(/C=C/c2ccccc2)cc1O [AMORPHASTILBOL]
Given back: 5.82

====

As an illustration, consider measured pIC50 for molecules on Peroxisome proliferator-activated receptor gamma (Homo sapiens, UniProt P37231).
To interpret pIC50, take it as minus log10 of a concentration measured in moles per litre.

Some solved entries appear below for comparison.
- molecular string: "CC(C)=CCC/C(C)=C/Cc1c(O)cc(/C=C/c2ccc(Cl)cc2)cc1O"
  pIC50: 6.27
- molecular string: "CC(C)=CCC/C(C)=C/Cc1c(O)cc(/C=C/c2ccc(F)cc2)cc1O"
  pIC50: 5.63
- molecular string: "CC(C)=CCC/C(C)=C/Cc1c(O)cc(/C=C/c2ccc(C#N)cc2)cc1O"
  pIC50: 5.92

Asked: Dear colleague, I am looking for the recorded pIC50 of the following molecule: CC(C)=CCC/C(C)=C/Cc1c(O)cc(/C=C/c2ccc(C(F)(F)F)cc2)cc1O
Given back: 5.09

Asked: Next molecule up: CC(C)=CCC/C(C)=C/Cc1c(O)cc(/C=C/c2ccc(C=O)cc2)cc1O
Given back: 6.05

====

# system: Peroxisome proliferator-activated receptor alpha (Homo sapiens)
# test: Binding affinity to GST-tagged human PPARalpha by TR-FRET analysis
measured endpoint: pIC50
Conceptually, pIC50 converts a concentration in mol/L into minus its log10.

In the examples that follow, each entry is paired with its recorded pIC50.
- molecular string: "CC(C)=CCC/C(C)=C/Cc1c(O)cc(/C=C/c2ccsc2)cc1O"
  system: "Peroxisome proliferator-activated receptor alpha (Homo sapiens)"
  measured endpoint: "pIC50"
  number: 5.27
- molecular string: "CC(C)=CCC/C(C)=C/Cc1c(O)cc(/C=C/c2ccc(C(F)(F)F)cc2)cc1O"
  system: "Peroxisome proliferator-activated receptor alpha (Homo sapiens)"
  measured endpoint: "pIC50"
  number: 5.48
- molecular string: "CC(C)=CCC/C(C)=C/Cc1c(O)cc(/C=C/c2ccc(Cl)cc2)cc1O"
  system: "Peroxisome proliferator-activated receptor alpha (Homo sapiens)"
  measured endpoint: "pIC50"
  number: 5.13
- molecular string: "CC(C)=CCC/C(C)=C/Cc1c(O)cc(/C=C/c2cc(F)cc(F)c2)cc1O"
  system: "Peroxisome proliferator-activated receptor alpha (Homo sapiens)"
  measured endpoint: "pIC50"
  number: 5.68

Next, consider the following compound.
Asked: Returns the measured pIC50 for the input compound. Input: COc1ccc(/C=C/c2cc(O)c(C/C=C(\C)CCC=C(C)C)c(O)c2)cc1
Given back: 5.60

====

# system: Peroxisome proliferator-activated receptor alpha (Homo sapiens)
# test: Transactivation of human PPARalpha expressed in african green monkey CV1 cells by luciferase reporter gene assay
measured endpoint: EC50 (µM)
Answer in µM, number only, no unit symbol.

Example entries and their recorded answers appear below.
- molecular string: "CC(C)=CCC/C(C)=C/Cc1c(O)cc(/C=C/c2ccccc2)cc1O"
  EC50 / µM: 12
- molecular string: "CC(C)=CCC/C(C)=C/Cc1c(O)cc(/C=C/c2ccc(C#N)cc2)cc1O"
  EC50 / µM: 20

Shifting focus to the compound that follows.
Asked: Query for Peroxisome proliferator-activated receptor alpha (Homo sapiens): what EC50 does the record show for CC(C)=CCC/C(C)=C/Cc1c(O)cc(/C=C/c2ccc(O)cc2)cc1O ?
Given back: 8

====

# system: Peroxisome proliferator-activated receptor alpha (Homo sapiens) (UniProt Q07869)
# Sequence (whole entry): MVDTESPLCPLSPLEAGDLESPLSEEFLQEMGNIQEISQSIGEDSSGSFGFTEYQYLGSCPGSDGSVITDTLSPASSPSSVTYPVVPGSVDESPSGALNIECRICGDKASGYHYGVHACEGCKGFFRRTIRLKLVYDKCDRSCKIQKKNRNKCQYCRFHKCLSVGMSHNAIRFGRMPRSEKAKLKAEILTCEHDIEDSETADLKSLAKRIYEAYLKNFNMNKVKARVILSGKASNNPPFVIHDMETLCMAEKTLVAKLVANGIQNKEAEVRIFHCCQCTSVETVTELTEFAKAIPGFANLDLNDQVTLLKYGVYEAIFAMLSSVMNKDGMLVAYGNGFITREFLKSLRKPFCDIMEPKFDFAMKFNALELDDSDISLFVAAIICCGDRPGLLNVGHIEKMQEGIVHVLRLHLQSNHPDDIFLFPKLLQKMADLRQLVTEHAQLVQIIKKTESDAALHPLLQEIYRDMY
# test: Transactivation of human PPARalpha expressed in african green monkey CV1 cells at 30 uM by luciferase reporter gene assay relative to Wy14643
# Assay type: cell-based
# assay conditions: CV-1
Response field label: string, one of Fulfilled (Emax strictly below 60%) or Not fulfilled.

Asked: Does CC(C)=CCC/C(C)=C/Cc1c(O)cc(/C=C/c2ccccc2)cc1O [AMORPHASTILBOL] have Emax strictly under 60%?
Given back: Not fulfilled

Asked: Okay, and CC(C)=CCC/C(C)=C/Cc1c(O)cc(/C=C/c2ccc(C#N)cc2)cc1O ?
Given back: Fulfilled

Asked: Now give it for CC(C)=CCC/C(C)=C/Cc1c(O)cc(/C=C/c2ccsc2)cc1O too.
Given back: Fulfilled

Asked: Param item: CC(C)=CCC/C(C)=C/Cc1c(O)cc(/C=C/c2ccc(C=O)cc2)cc1O
Given back: Fulfilled

Asked: Now give it for COc1ccc(/C=C/c2cc(O)c(C/C=C(\C)CCC=C(C)C)c(O)c2)cc1 too.
Given back: Not fulfilled

Asked: Okay, and CC(C)=CCC/C(C)=C/Cc1c(O)cc(/C=C/c2ccc(F)cc2)cc1O ?
Given back: Not fulfilled

Asked: Lookup CC(C)=CCC/C(C)=C/Cc1c(O)cc(/C=C/c2ccoc2)cc1O
Given back: Not fulfilled

====

# system: Peroxisome proliferator-activated receptor gamma (Homo sapiens) (UniProt P37231)
# Sequence (whole entry): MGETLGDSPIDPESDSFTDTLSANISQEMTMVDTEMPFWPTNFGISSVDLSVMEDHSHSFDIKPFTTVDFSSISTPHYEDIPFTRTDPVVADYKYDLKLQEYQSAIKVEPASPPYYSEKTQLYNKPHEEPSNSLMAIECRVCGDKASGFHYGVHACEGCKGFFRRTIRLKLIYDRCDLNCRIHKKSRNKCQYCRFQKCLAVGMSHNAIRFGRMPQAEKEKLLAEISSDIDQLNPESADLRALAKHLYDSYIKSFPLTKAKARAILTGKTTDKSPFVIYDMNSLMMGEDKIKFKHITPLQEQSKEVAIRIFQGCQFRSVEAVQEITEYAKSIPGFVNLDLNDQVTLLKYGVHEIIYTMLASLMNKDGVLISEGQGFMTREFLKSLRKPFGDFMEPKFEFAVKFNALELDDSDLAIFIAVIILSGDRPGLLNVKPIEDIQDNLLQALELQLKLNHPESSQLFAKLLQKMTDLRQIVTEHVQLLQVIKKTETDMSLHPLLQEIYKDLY
# test: Transactivation of human PPARgamma expressed in african green monkey CV1 cells at 30 uM by luciferase reporter gene assay relative to […]
# Assay type: cell-based
# assay conditions: CV-1
measured endpoint: Emax (%)
Output spec: scalar in %, unitless text.

# count of solved cases: 5
- compound: "CC(C)=CCC/C(C)=C/Cc1c(O)cc(/C=C/c2ccc(C=O)cc2)cc1O"
  number: 27
- compound: "CC(C)=CCC/C(C)=C/Cc1c(O)cc(/C=C/c2ccoc2)cc1O"
  number: 98
- compound: "COc1ccc(/C=C/c2cc(O)c(C/C=C(\\C)CCC=C(C)C)c(O)c2)cc1"
  number: 66
- compound: "CC(C)=CCC/C(C)=C/Cc1c(O)cc(/C=C/c2ccccc2)cc1O [AMORPHASTILBOL]"
  number: 83
- compound: "CC(C)=CCC/C(C)=C/Cc1c(O)cc(/C=C/c2ccc(F)cc2)cc1O"
  number: 68

Asked: Look up Emax for this compound: CC(C)=CCC/C(C)=C/Cc1c(O)cc(/C=C/c2ccc(C#N)cc2)cc1O
Given back: 41

Asked: // query: CC(C)=CCC/C(C)=C/Cc1c(O)cc(/C=C/c2ccsc2)cc1O
Given back: 68

Every entry's value here was drawn from ChEMBL document CHEMBL2029250.
